Value source: patent US20210388087A1

# targetOrTestSystem: Human CD137 ECD (human)
# Sequence (chain, as listed by the source limits assumed): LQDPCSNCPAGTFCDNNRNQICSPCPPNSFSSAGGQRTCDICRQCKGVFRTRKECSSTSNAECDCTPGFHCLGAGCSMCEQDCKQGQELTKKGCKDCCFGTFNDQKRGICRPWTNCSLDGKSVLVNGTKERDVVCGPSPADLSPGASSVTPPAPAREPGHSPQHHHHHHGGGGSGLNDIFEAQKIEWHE
# experiment: SPR, vs parent H183/L072
In this section we review reported fold change of affinity values for a set of binders.
Give a bare numeral; the unit fold is implied.

Previously resolved entries follow.
dBBDu183H V95Q / dBBDu072L (antibody, name in Kabat numbering, V domains shown) VH: QVQLVESGGGLVQPGRSLRLSCAASGFTFSNAWMHWVRQAPGKGLEWVAQIKDKGNAYAAYYAPSVKGRFTISRDDSKNSIYLQMNSLKTEDTAVYYCHYQHYASASTVLPAFGVDAWGQGTTVTVSS VL: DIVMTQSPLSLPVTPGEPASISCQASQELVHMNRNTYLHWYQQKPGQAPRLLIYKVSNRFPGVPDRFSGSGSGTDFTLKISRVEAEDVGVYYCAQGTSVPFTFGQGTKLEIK; 0
dBBDu183H T100bK / dBBDu072L (antibody, name in Kabat numbering, V domains shown) VH: QVQLVESGGGLVQPGRSLRLSCAASGFTFSNAWMHWVRQAPGKGLEWVAQIKDKGNAYAAYYAPSVKGRFTISRDDSKNSIYLQMNSLKTEDTAVYYCHYVHYASASKVLPAFGVDAWGQGTTVTVSS VL: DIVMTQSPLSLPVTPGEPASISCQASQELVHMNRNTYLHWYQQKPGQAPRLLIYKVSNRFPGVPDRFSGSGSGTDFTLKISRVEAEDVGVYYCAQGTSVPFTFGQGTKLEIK; 0

Then there is this binder:
Ask | Record request: fold change of affinity value, item dBBDu183H D101K / dBBDu072L (antibody, name in Kabat numbering, V domains shown) VH: QVQLVESGGGLVQPGRSLRLSCAASGFTFSNAWMHWVRQAPGKGLEWVAQIKDKGNAYAAYYAPSVKGRFTISRDDSKNSIYLQMNSLKTEDTAVYYCHYVHYASASTVLPAFGVKAWGQGTTVTVSS VL: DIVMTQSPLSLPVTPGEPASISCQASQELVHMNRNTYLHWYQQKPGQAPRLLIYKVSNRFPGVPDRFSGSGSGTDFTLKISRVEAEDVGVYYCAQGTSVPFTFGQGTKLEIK
Reply | 0
